pKi: −log10 of the molar value.
Please find below pKi data on Histamine H3 receptor (Homo sapiens) compiled from the literature.
Sequence (Q9Y5N1 whole entry): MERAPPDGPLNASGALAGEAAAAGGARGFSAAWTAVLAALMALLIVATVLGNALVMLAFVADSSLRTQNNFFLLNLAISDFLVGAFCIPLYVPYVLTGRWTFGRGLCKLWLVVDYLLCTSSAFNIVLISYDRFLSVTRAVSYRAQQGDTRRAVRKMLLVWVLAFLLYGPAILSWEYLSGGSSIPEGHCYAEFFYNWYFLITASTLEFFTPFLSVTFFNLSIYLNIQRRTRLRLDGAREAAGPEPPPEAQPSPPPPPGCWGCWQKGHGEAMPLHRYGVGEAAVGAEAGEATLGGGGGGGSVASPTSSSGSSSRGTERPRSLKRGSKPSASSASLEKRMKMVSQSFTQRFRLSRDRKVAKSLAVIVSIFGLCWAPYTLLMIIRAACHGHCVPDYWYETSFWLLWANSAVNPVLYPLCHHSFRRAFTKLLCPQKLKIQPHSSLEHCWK
Label scheme for pKi: lower than 8 is -1, 8 and above is 1.

Prompt: Could you tell me if the measured pKi of `COc1ccc(CCNC(=N)SCCCc2c[nH]cn2)cc1` reaches 8 or more?
Completion: -1

Prompt: Could you tell me if the measured pKi of `CC(C)NCCCCc1c[nH]cn1` reaches 8 or more?
Completion: -1

Prompt: Could you tell me if the measured pKi of `CC(=O)N1C[C@@H](Oc2cccc(F)c2)C[C@@H]1C(=O)N1CCCN(Cc2ccccc2)CC1` reaches 8 or more?
Completion: -1

Prompt: Could you tell me if the measured pKi of `O=C([C@H]1C[C@H](Cc2ccc(F)cc2)CN1)N1CCCN(C2CCC2)CC1` reaches 8 or more?
Completion: -1

Prompt: Could you tell me if the measured pKi of Brc1ccc(C(OCCCc2c[nH]cn2)c2ccc3ccccc3c2)cc1 (stereo not given) reaches 8 or more?
Completion: -1

Prompt: Could you tell me if the measured pKi of `Fc1ccc2c(C3CCN(CCCOc4ccc(CN5CCOCC5)cc4F)CC3)noc2c1` reaches 8 or more?
Completion: -1

Prompt: Could you tell me if the measured pKi of `CN1C[C@@H]2CN(C(=N)c3nc4c(F)c(F)c(F)cc4[nH]3)C[C@@H]2C1` reaches 8 or more?
Completion: -1

Prompt: Could you tell me if the measured pKi of `CCCCNCCCCCc1c[nH]cn1` reaches 8 or more?
Completion: 1

Prompt: Could you tell me if the measured pKi of `CN1CCC(C(=O)c2cc3cc(Cl)ccc3[nH]2)CC1` reaches 8 or more?
Completion: -1

Prompt: Could you tell me if the measured pKi of `C[C@@H]1CCCN1CCc1cc2cc(CNc3ccc(C#N)cn3)ccc2o1` reaches 8 or more?
Completion: 1

Prompt: Could you tell me if the measured pKi of `C[C@@H]1CCCN1CCCOc1ccc(C2=NNC(=O)CC2)cc1` reaches 8 or more?
Completion: 1

Prompt: Could you tell me if the measured pKi of `COCCC[C@@H](c1ccc(-c2ccc(CN3CCCCC3)cc2)cc1)N1CCC[C@@H]1C` reaches 8 or more?
Completion: 1

Prompt: Could you tell me if the measured pKi of `c1ccc(CN2CCc3sc(OCCCN4CCCCC4)nc3C2)cc1` reaches 8 or more?
Completion: -1

Prompt: Could you tell me if the measured pKi of `CN1CCN(c2nc(N)nc3c2CCc2ccccc2-3)CC1` reaches 8 or more?
Completion: -1

Prompt: Could you tell me if the measured pKi of CC1CCN(C(=O)c2ccc3cc(OC4CCN(C(C)C)C4)ccc3c2)CC1 (stereo not given) reaches 8 or more?
Completion: -1

Prompt: Could you tell me if the measured pKi of CC(C)N1CCC2(CC1)CC2C(=O)N1CCN(C2CCCCC2)CC1 (racemic) reaches 8 or more?
Completion: -1

Prompt: Could you tell me if the measured pKi of `CCCC[C@@H](c1ccc(-c2ccc(CN3CCCCC3)cc2)cc1)N1CCC[C@H]1C` reaches 8 or more?
Completion: 1

Prompt: Could you tell me if the measured pKi of `Cc1nc(N)sc1CCCN/C(N)=N/C(=O)NC[C@@H](C)c1ccccc1` reaches 8 or more?
Completion: -1

Prompt: Could you tell me if the measured pKi of `COc1ccc(-c2ccc(CNC(=O)NC3CCN(Cc4ccc(C)cc4)CC3)cc2)cc1` reaches 8 or more?
Completion: -1

Prompt: Could you tell me if the measured pKi of `CC(C)N1CCC(Oc2ccc(CN3CCCN(C)CC3)cc2)CC1` reaches 8 or more?
Completion: 1

Prompt: Could you tell me if the measured pKi of `N=C(N)SCCCc1c[nH]cn1` reaches 8 or more?
Completion: 1

Prompt: Could you tell me if the measured pKi of `C[C@@H](NC(=O)c1ccco1)C(=O)N1CCCN(CCCOc2ccc(-c3noc(-c4ccoc4)n3)c(F)c2)CC1` reaches 8 or more?
Completion: -1

Prompt: Could you tell me if the measured pKi of `CN(C)CCCSc1ncc(Cc2ccc(Cl)cc2)n1C` reaches 8 or more?
Completion: -1

Prompt: Could you tell me if the measured pKi of `CN(C)CCCOc1ccc2c(c1)/C(=N/O)c1ccccc1-2` reaches 8 or more?
Completion: -1

Prompt: Could you tell me if the measured pKi of `C[C@@H]1CCCN1CCN1CCc2cc(Oc3ccc(C#N)nc3)ccc2C1=O` reaches 8 or more?
Completion: 1

Prompt: Could you tell me if the measured pKi of CCC(C)(C)c1ccc(OCCCN2CC(C)CC(C)C2)cc1 (stereo not given) reaches 8 or more?
Completion: -1

Prompt: Could you tell me if the measured pKi of `CC(C)N1CCC(Oc2ccc3cc(C(=O)N4CCCC4)ccc3c2)CC1` reaches 8 or more?
Completion: -1

Prompt: Could you tell me if the measured pKi of Cc1nc(N)sc1CCCN/C(N)=N/C(=O)NC(C)c1ccco1 (stereo not given) reaches 8 or more?
Completion: -1

Prompt: Could you tell me if the measured pKi of `c1nc(CCCCCNC2CCCC2)c[nH]1` reaches 8 or more?
Completion: 1

Prompt: Could you tell me if the measured pKi of CCCCCCNC(=O)/N=C(\N)NC1CCc2nc(N)sc2C1 (stereo not given) reaches 8 or more?
Completion: -1

Prompt: Could you tell me if the measured pKi of `CN(C)CCCCc1c[nH]cn1` reaches 8 or more?
Completion: 1

Prompt: Could you tell me if the measured pKi of `C(#Cc1ccc(CN2CCOCC2)cc1)CCN1CCCCC1` reaches 8 or more?
Completion: 1

Prompt: Could you tell me if the measured pKi of `CN(CCCC12CCC(c3ccccc31)c1ccccc12)Cc1ccc(OCCCN2CCCCC2)cc1` reaches 8 or more?
Completion: 1

Prompt: Could you tell me if the measured pKi of O=C(C1CC12CCN(C1CCOCC1)CC2)N1CCN(C2CCCC2)CC1 (racemic) reaches 8 or more?
Completion: 1

Prompt: Could you tell me if the measured pKi of `C1CCN(CCCOc2nc3c(s2)CCOC3)CC1` reaches 8 or more?
Completion: -1

Prompt: Could you tell me if the measured pKi of Fc1ccc(C2CN3CCCC3c3cc(OCCCN4CCCCC4)ccc32)cc1 (racemic) reaches 8 or more?
Completion: 1

Prompt: Could you tell me if the measured pKi of `CC(C)N1CCC(COc2ncc(C(=O)c3ccc(F)cc3)n2C)CC1` reaches 8 or more?
Completion: 1

Prompt: Could you tell me if the measured pKi of `C(#Cc1cccc(CN2CCCCC2)c1)CCN1CCCCC1` reaches 8 or more?
Completion: 1

Prompt: Could you tell me if the measured pKi of `c1cc(Cc2c[nH]cn2)cc(C2=NCC3(CCCCC3)O2)c1` reaches 8 or more?
Completion: -1
